assay system: Bcl-2-related protein A1 (Homo sapiens) (UniProt Q16548)
Sequence (Q16548 whole entry, looked up): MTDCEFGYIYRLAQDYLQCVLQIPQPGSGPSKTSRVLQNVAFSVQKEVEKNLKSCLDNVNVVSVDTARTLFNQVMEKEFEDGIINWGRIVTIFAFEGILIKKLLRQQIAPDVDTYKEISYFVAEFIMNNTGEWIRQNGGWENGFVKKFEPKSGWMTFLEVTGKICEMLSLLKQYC
method notes: Bfl-1/Bim complex disruptors – biochemical, multiplexed, bead-based flow cytometry, primary screen (AID 1008);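 further: 0% = wells without compound plus tracer and 100% = blocker peptide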
conditions used: Bim-Bfl-1 binding inhibition, at 10 µM, active compounds read high
About 240 (0.13%) of roughly 190,000 compounds were called active. The entries come from a sample that favours actives as a whole.
quantity kind: inhibition (%)
Dear colleague, please return just the value in %, with no unit written.

[
  {
    "compound": "CCc1cccc(CC)c1NC(=S)NCc1ccc2[nH]c(C)cc2c1",
    "result units": "%",
    "experimental value": -2
  },
  {
    "compound": "Cc1cc(/C=C2/NC(=O)NC2=O)c(C)n1-c1cccnc1",
    "result units": "%",
    "experimental value": -4
  },
  {
    "compound": "COc1cccc(NC(=O)Cn2c3ccccc3c3nc4n(c(=O)c32)CCS4)c1",
    "result units": "%",
    "experimental value": 2
  },
  {
    "compound": "CCN(CCn1cccn1)Cc1nc(-c2ccc(C(=O)OC)cc2)no1",
    "result units": "%",
    "experimental value": -5
  },
  {
    "compound": "Cc1cc(C(=O)NNC(=O)c2cccc(S(=O)(=O)N3CCOCC3)c2)c2ccccc2n1",
    "result units": "%",
    "experimental value": -6
  }
]

Need inhibition, item O=[N+]([O-])c1cccc(-c2nnc3c4ccccc4c4ccccc4n23)c1
-7

Proceed to CC(/C=N/NC(=O)c1cc(-c2ccc3ccccc3c2)n[nH]1)=C\c1ccco1
8
